- measurement description: self-splicing fitness, log relative to wild type (ln ratio); higher = more splicing; Tetrahymena group I intron in knt gene, E. coli kanamycin selection, DiMSum; sequences stand for … in CUCUCU…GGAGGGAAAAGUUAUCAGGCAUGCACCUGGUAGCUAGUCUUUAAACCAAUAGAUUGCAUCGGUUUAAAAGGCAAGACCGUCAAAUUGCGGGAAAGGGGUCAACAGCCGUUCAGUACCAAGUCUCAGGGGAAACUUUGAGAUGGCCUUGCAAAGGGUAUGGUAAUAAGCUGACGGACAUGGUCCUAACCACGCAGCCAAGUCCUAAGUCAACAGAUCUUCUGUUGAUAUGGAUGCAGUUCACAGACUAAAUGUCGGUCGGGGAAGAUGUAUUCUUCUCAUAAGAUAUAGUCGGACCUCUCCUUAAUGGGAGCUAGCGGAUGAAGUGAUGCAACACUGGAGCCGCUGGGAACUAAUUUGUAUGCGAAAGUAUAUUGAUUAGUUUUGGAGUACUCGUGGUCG;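 note: selection with 25 µg/mL kanamycin versus none on LB agar overnight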
- setup conditions: 37 °C
Records here are stratified by self-splicing fitness (ln); strata: Low: < -2; Medium: ≥ -2 and < -0.7; High: ≥ -0.7

{"columns": ["sequence data", "group label"],
 "data": [
  ["CUUGAGCAAUAUUACGAGAG", "Medium"],
  ["GGAUAGCAAUAUUACGUCGA", "High"],
  ["GUGCAGCAAUAUUACGACGC", "High"],
  ["ACAUAGCAAUAUUACGGGUG", "High"],
  ["CUCCAGCAAUAUUACGCAUA", "Low"],
  ["GCACAGCAAUAUUACGAACC", "High"],
  ["CGGUAGCAAUAUUACGACUG", "Medium"],
  ["AGCUAGCAAUAUUACGUACA", "High"],
  ["AAUCAGCAAUAUUACGUGUG", "Medium"],
  ["CUGGAGCAAUAUUACGGGCC", "Low"],
  ["GCCGAGCAAUAUUACGACAG", "Low"],
  ["AUGAAGCAAUAUUACGUUGC", "Low"],
  ["AGACAGCAAUAUUACGAAGG", "Low"],
  ["GUGGAGCAAUAUUACGCGAU", "Low"],
  ["CGUGAGCAAUAUUACGAGUA", "Medium"]
]}

====

- measurement description: self-splicing fitness, log relative to wild type (ln ratio); higher = more splicing; Tetrahymena group I intron in knt gene, E. coli kanamycin selection, DiMSum; sequences stand for … in CUCUCU…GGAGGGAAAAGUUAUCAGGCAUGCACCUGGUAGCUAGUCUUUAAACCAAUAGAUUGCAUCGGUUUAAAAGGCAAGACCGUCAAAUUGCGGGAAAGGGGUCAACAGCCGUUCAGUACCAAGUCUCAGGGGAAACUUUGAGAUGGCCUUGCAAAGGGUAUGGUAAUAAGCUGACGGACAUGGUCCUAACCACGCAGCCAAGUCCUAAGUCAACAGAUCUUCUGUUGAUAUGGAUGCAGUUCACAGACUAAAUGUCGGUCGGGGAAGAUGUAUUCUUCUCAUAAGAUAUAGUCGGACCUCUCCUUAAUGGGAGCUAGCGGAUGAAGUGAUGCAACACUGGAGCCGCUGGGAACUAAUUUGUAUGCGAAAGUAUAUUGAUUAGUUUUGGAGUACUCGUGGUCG
- setup conditions: 37 °C
self-splicing fitness (ln) listing for selected sequences.
metric: self-splicing fitness (ln)

{"columns": ["sequence data", "experimental result"],
 "data": [
  ["UUACAGCAAUAUUACGCGCA", -0.892],
  ["GUAUAGCAAUAUUACGCACU", -0.384],
  ["CCAUAGCAAUAUUACGCAGG", -3.18],
  ["GGUAAGCAAUAUUACGGUGG", -3.18],
  ["AGCUAGCAAUAUUACGCAGU", -2.02],
  ["GGUCAGCAAUAUUACGUAAC", -0.628],
  ["AUCUAGCAAUAUUACGCCAU", -1.05],
  ["UUCGAGCAAUAUUACGAUUG", -2.52],
  ["CAUUAGCAAUAUUACGGUUG", -0.664],
  ["CACAAGCAAUAUUACGAGUU", -1.13],
  ["CAGCAGCAAUAUUACGGCGG", -1.5],
  ["CUUGAGCAAUAUUACGAUAG", -0.896],
  ["AACGAGCAAUAUUACGUCCG", -2.07],
  ["CCCCAGCAAUAUUACGCACG", -2.2],
  ["GAAAAGCAAUAUUACGGCGU", 0.24],
  ["AAGUAGCAAUAUUACGCAUC", -1.08]
]}
